# experiment description: blockers of DNA damage checkpoint Chk1 activation – imaging, HeLa, hydroxyurea, phospho-Chk1 antibody, percent positive cells, primary screen (AID 1186)
# setup conditions: hydroxyurea-induced phospho-Chk1 immunofluorescence imaging, higher = more signal
Outcome label depends on z-score relative to 0.06: at/above gives Y, below gives N.

Example cases with answers are listed next.
CC(C)C(CO)N1C(=O)[C@@H]2[C@H]3C(=O)OCC=C[C@H]3OC23C=CCN(c2ccc(Cl)cc2)C(=O)[C@@H]13 (some centres undefined) :: N
COCCOC(=O)N1C(=O)[C@@]2(c3cc(C#CC4=CCCCC4)ccc31)[C@H](c1ccccc1OCCO)N1[C@H](c3ccccc3)[C@H](c3ccccc3)OC(=O)[C@H]1[C@@H]2C(=O)NC[C@H](O)c1ccccc1 :: N
CN(C)C(=O)[C@@]1(Cc2ccccc2)N=C(c2ccc(OCCCO)cc2)O[C@H]1c1ccccc1 :: N
CC[C@@H]1C=C(C(=O)O)[C@H](c2ccccc2)N1S(=O)(=O)c1ccc(C)cc1 :: Y
COc1ccc(C#Cc2ccc3c(c2)[C@]2(C(=O)N3)[C@H](c3ccc(O)cc3)N3[C@H](c4ccccc4)[C@H](c4ccccc4)OC(=O)[C@H]3[C@@H]2C(=O)Nc2nc3ccccc3s2)cc1 :: Y

Please check the record CCCCN1CC=CC23O[C@@H]4/C=C\CCC(C)OC(=O)C4[C@H]2C(=O)N(CCCO)[C@@H]3C1=O (some centres undefined) and state if its z-score is at or above 0.06.
Y

Please check the record `C=CCNC(=O)[C@@H]1[C@H]2C(=O)O[C@H](c3ccccc3)[C@H](c3ccccc3)N2[C@H](c2ccc(OCCO)cc2)[C@@]12C(=O)N(C(=O)OCCOC)c1ccc(C#Cc3ccc(OC)cc3)cc12` and state if its z-score is at or above 0.06.
Y

Please check the record `CCOC(=O)[C@@H]1CCCCN1C(=O)C(=O)OC` and state if its z-score is at or above 0.06.
Y

Please check the record `CC(C)=C1C(=O)C(c2ccccc2)=C2CN3C(=O)N(CCc4ccccc4)C(=O)[C@]3(Cc3ccc(C(F)(F)F)cc3)[C@H]21` and state if its z-score is at or above 0.06.
Y

Please check the record C=CCC(OC(C)=O)[C@@H]1[C@@H](N(Cc2cccc3ccccc23)C(=O)Cc2ccc(F)cc2)c2cc(OCCCO)ccc2N1C(=O)c1ccc2ccccc2c1 (some centres undefined) and state if its z-score is at or above 0.06.
N

Please check the record `[N-]=[N+]=Nc1ccccc1[C@H]1OC(c2ccc(OCCCO)cc2)=N[C@@]1(Cc1ccccc1)C(=O)NCCN1CCOCC1` and state if its z-score is at or above 0.06.
N

Please check the record `COc1ccc([Si](C)(C)[C@H]2[C@H](CC(=O)N(CCO)Cc3ccccc3)O[C@@]3(C(=O)N(C)c4c(Br)cc(C)cc43)[C@@H]2C)cc1` and state if its z-score is at or above 0.06.
N

Please check the record `CC(C)N1C(=O)C[C@@](C(=O)O)(c2ccc([N+](=O)[O-])cc2)[C@H]1c1ccc(CO)cc1` and state if its z-score is at or above 0.06.
N

Please check the record N#Cc1ccc(NN2C(C(O)c3ccc(Br)cc3)C=CC3C(=O)N(c4ccccc4)C(=O)C32)cc1 (centres undefined) and state if its z-score is at or above 0.06.
Y
